test system: M14 melanoma; test: NCI tumour cell line growth inhibition, 48 h
For each record, write down the corresponding TGI.

-- ask What TGI value was documented for this molecule, Nc1ccc(S(=O)(=O)Nc2cnc3c(Cl)cccc3n2)cc1 ?
-- reply > 750 µM

-- ask What TGI value was documented for this molecule, O=C(c1ccco1)N(C(=S)OC12CC3CC(CC(C3)C1)C2)c1ccccc1 ?
-- reply 43.7 µM

-- ask What TGI value was documented for this molecule, COC(=O)C1=C(O)C(C(=O)OC)[C@]2(O)[C@H](C(=O)OC)[C@H]1C[C@@H](c1ccc([N+](=O)[O-])cc1)[C@H]2C(=O)OC (stereo not given in full) ?
-- reply 44.5 µM

-- ask What TGI value was documented for this molecule, CC1=C(C(=O)Nc2ccc(Cl)c(Cl)c2)C(c2ccccc2O)NC(=O)N1 (stereo not given) ?
-- reply > 50 µM

-- ask What TGI value was documented for this molecule, COC(=O)/C(=N/NC(N)=O)C(C(=O)OC)C(=O)C(=O)Nc1ccc(Cl)cc1 (stereo not given) ?
-- reply > 100 µM
